Parameter: pEC50. Scope: all listed entries.
- System: SARS-CoV-2 replicon
- METHOD DESCRIPTION: microbe, parasite or virus in culture
- Type: cell-based
- CONDITION PARAMETERS: Severe acute respiratory syndrome coronavirus 2, Huh-7
pEC50: −log10 of the molar value.

Exercise: Please report the recorded pEC50 for C#CCNC(=O)C(=O)NCc1ccccc1C(=O)NC1(c2ccc3nn(C)cc3c2)CC1 .
Key: > 6.00

New cases:
Exercise: Data request, read-out pEC50, for N#CCNC(=O)C(=O)NCc1ccccc1C(=O)NC1(c2cc(F)cc(-c3cnn(C4CC4)c3)c2F)CC1
Key: 5.00 to 6.00

Exercise: Tell me the measured pEC50 of CC(=O)N1CCN(c2cc(C3(NC(=O)c4ccccc4CNC(=O)C(=O)NCC#N)CC3)c3ccccc3c2)CC1 , please.
Key: 5.00 to 6.00

Exercise: Any idea what its pEC50 is? The compound is COc1cc(C2(NC(=O)c3ccccc3CNC(=O)C(=O)N[C@@H](C)C#Cc3ccc(C#N)cc3F)CC2)cc2cn(C3CC3)nc12
Key: > 6.00

Exercise: Value lookup for pEC50; key = CN1C(=O)c2cccc3c(C4(NC(=O)c5ccccc5CNC(=O)C(=O)NCC#N)CC4)ccc1c23
Key: 5.00 to 6.00
